Tgt: gelatinase B (UniProt P14780 107-707, limits assumed)
Sequence (P14780 107-707 limits assumed): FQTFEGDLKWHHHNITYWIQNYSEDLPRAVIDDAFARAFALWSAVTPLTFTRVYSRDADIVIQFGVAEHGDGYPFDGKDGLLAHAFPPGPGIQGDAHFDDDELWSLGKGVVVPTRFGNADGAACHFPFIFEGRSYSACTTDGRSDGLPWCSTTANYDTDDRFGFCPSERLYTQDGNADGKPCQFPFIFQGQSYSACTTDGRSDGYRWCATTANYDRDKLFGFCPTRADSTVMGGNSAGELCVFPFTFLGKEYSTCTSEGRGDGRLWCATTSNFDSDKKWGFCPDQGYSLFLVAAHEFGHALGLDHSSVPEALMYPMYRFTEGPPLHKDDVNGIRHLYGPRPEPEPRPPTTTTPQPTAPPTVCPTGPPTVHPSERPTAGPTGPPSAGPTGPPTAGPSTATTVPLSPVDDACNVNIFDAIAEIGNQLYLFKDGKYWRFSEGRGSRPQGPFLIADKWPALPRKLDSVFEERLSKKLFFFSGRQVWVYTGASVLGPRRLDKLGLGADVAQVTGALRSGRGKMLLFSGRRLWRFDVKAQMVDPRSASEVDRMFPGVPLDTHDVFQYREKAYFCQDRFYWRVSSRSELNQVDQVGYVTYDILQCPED
Method: cell-based or functional assay
The star is where a group is joined. Dnp = O=[N+]([O-])c1ccc(*)c([N+](=O)[O-])c1
# Selectivity v. Coll-3 per record follows
Test readout: Selectivity v. Coll-3 (unitless)

>>> value_measured("Dnp-GPKGITS-NH2 (SMILES CC[C@H](C)[C@H](NC(=O)CNC(=O)[C@H](CCCCN)NC(=O)[C@@H]1CCCN1C(=O)CNc1ccc([N+](=O)[O-])cc1[N+](=O)[O-])C(=O)N[C@H](C(=O)N[C@@H](CO)C(N)=O)[C@@H](C)O) [Dnp-GPKGITS-NH2]")
2
>>> value_measured("Dnp-VTPYNMRG-NH2 (SMILES CSCC[C@H](NC(=O)[C@H](CC(N)=O)NC(=O)[C@H](Cc1ccc(O)cc1)NC(=O)[C@@H]1CCCN1C(=O)[C@@H](NC(=O)[C@@H](Nc1ccc([N+](=O)[O-])cc1[N+](=O)[O-])C(C)C)[C@@H](C)O)C(=O)N[C@@H](CCCNC(=N)N)C(=O)NCC(N)=O) [Dnp-VTPYNMRG-NH2]")
4
